biological target: UniProtKB P04062; assay: Glucocerebrosidase (Gcase) activation assay, 4-methylumbelliferyl-beta-D-glucopyranoside substrate, with saposin C; type: biochemical; conditions: 0.1 μM test compound; read-out: Percent Gcase Activation 0.1 μM Test Compound
Sequence (P04062 40-536): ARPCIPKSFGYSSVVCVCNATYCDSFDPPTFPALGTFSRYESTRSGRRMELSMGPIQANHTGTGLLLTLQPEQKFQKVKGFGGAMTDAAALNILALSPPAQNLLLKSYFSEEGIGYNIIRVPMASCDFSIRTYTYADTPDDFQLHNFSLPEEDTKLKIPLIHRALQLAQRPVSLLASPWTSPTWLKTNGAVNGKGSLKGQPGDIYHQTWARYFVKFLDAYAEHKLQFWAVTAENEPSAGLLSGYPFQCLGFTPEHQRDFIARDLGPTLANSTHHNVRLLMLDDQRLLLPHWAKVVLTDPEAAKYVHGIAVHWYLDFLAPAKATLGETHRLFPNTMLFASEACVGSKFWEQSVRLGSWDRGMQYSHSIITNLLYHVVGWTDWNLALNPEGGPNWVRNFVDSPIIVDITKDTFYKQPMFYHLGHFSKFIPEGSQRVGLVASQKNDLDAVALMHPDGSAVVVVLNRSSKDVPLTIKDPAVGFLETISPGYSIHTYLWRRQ
parameter: activation at 0.1 µM

Req: Could you tell me which activation at 0.1 µM is on file for Cc1cc(-c2ccccc2F)nc2c(C(=O)NC(C)C3CC3)ncn12 (stereo not drawn) [III-51] ?
Resp: < 10%

Req: For Cc1cc(-c2ccc(F)cc2)n2cnc(C(=O)N[C@@H](C)C3CC3)c2n1 [III-13] , what is its reported activation at 0.1 µM?
Resp: < 10%

Req: Name the reported activation at 0.1 µM value associated with the compound Cc1cc(-c2cc(F)cc(F)c2)nc2c(C(=O)NC(C)(C)C)ncn12 [III-125]
Resp: > 20%

Req: Request the reported activation at 0.1 µM associated with CCc1cc(-c2ccns2)nc2c(C(=O)NC(C3CC3)C(F)(F)F)ncn12 (stereo not drawn) [III-165]
Resp: > 20%

Req: # get_value(readout='activation at 0.1 µM', item= Cc1cc(-c2cnc(Cl)c(F)c2)nc2c(C(=O)N[C@@H](C)C3CC3)ncn12 [III-107] )
Resp: < 10%

Req: So what does the record say about activation at 0.1 µM for CCc1cc(N2CCCC(F)(F)C2)nc2c(C(=O)NC(C)(C)C3CC3)ncn12 [III-136] ?
Resp: > 20%

Req: Could you tell me which activation at 0.1 µM is on file for COc1ccccc1-c1cc(C)n2cnc(C(=O)NC(C)C3CC3)c2n1 (stereo not drawn) [III-52] ?
Resp: > 20%

Req: Request the reported activation at 0.1 µM associated with Cc1cc(-c2cccc(C#N)c2)nc2c(C(=O)NC(C)(C)C3CC3)ncn12 [III-151]
Resp: > 20%

Req: Suppose we examine the compound Cc1cc(OC2CC(F)(F)C2)nc2c(C(=O)NC(C3CC3)C(F)(F)F)ncn12 (stereo not drawn) [III-158] ; what activation at 0.1 µM value has been reported?
Resp: < 10%
